Biological target: HLA-A3303 (Homo sapiens, UniProt P04439, A270S/D185E/E176V/E277Q/E87N/F33T/G231S/H175R/I121M/I218V/I322F/K168Q/L300P/L318F/M331R/P217A/Q86R/Q94H/R138Q/T323A/T345S/T97I/V358M)
Construct: expressed in transfected cells; host or cells: HMy2.CIR
Assay: cell-based
Format: binding
Conditions: HLA-A3303 HMy2.CIR cells; competitor peptide 5μM; 24 hours; flow cytometry; read-out: 5μM Inhibition (%)
Method: HMy2.CIR cell line was purchased (Zhongqiao xinzhou Biotech, Shanghai) and maintained in complete IMDM medium with 10% FCS and 1% penicillin/streptomycin. […] The plate was centrifuged at 600 rpm for 5 min at room temperature (RT). […] Finally, cells were resuspended with 150 μL PBS and analyzed with flow cytometry. […] Binding affinity of unlabeled peptide with the indicated HLA-A molecule is assessed by IC50.
Residues, ends and D or L forms follow the SMILES beside them.
endpoint.name: inhibition at 5 µM (%)
Give bare numbers, in %.

CC(C)C[C@H](NC(=O)[C@@H](N)Cc1ccccc1)C(=O)N[C@@H](Cc1c[nH]c2ccccc12)C(=O)N[C@@H](CCC(=O)O)C(=O)N[C@@H](Cc1c[nH]c2ccccc12)C(=O)N[C@@H](C)C(=O)N[C@@H](CO)C(=O)N[C@H](C(=O)N[C@@H](CCCNC(=N)N)C(=O)O)C(C)C [Epitope P78] (H-FLWEWASVR-OH; N-terminus and C-terminus assumed)	72.1

Kindly consider the entry below.
get_value(item= CC[C@H](C)[C@H](NC(=O)[C@H](Cc1c[nH]c2ccccc12)NC(=O)[C@@H](NC(=O)CNC(=O)[C@H](Cc1ccccc1)NC(=O)[C@H](CO)NC(=O)[C@@H](NC(=O)[C@@H](N)CC(C)C)C(C)C)C(C)C)C(=O)N[C@@H](CCCNC(=N)N)C(=O)O [Epitope P4] , readout=inhibition at 5 µM) returns 27.4
